- Procedure Text: Cytotoxicity in differentiated SH-SY5Y cells, MTT
- Assay type: cell-based
- Condition Summary: human; 10 µM, SH-SY5Y, MTT, average of 5; read-out: %Cell viability (cytotoxicity)
Quantity: viability at 10 µM (%)
Expressed in %, but write only the number.

Task item: So what's the measured viability at 10 µM for this one? COc1ccc(-c2oc3cc(OC)cc(OC)c3c(=O)c2OC)cc1
Reply: 98.8

Task item: So what's the measured viability at 10 µM for this one? COc1ccc(-c2cc(=O)c3c(OC)cc(OC)cc3o2)cc1
Reply: 102

====

- System Under Test: AChE (Homo sapiens)
- Sequence (P22303 32-614): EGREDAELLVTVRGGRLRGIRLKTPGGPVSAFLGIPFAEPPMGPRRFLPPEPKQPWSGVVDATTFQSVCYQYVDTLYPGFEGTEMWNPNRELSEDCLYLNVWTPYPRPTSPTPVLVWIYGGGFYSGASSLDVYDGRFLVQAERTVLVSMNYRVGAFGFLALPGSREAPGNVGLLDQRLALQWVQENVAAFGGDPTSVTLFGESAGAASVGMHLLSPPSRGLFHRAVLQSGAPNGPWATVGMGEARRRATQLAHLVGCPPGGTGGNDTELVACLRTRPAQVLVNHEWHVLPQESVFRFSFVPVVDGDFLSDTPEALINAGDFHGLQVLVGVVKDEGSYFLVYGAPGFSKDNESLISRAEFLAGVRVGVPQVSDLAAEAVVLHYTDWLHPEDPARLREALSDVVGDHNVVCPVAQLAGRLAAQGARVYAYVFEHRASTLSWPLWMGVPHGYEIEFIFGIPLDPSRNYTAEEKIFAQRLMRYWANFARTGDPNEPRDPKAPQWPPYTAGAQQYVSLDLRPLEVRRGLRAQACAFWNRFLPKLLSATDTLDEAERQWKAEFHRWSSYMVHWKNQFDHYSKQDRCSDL
- Procedure Text: biochemical
- Condition Summary: mean ± SD, n = 3; read-out: AChE inhibition IC50
Kindly supply the reported pIC50 values for the records listed here.
The read-out pIC50 is expressed as -log10 of concentration in moles per litre.

Task item: So what's the measured pIC50 for this one? COc1cc(OC)c2c(=O)c(OC)c(-c3ccccc3)oc2c1 [F2, 3,5,7-trimethoxyflavone]
Reply: 3.62

Task item: So what's the measured pIC50 for this one? COc1cc(O)c2c(=O)c(OC)c(-c3ccccc3)oc2c1 [F4, 5-hydroxy-3,7-dimethoxyflavone]
Reply: 3.66
